Measured koff accompanies every entry in the list below.
Target: T1, Murine RANK-Fc (mouse, UniProt O35305 31-214)
T1 sequence (looked up): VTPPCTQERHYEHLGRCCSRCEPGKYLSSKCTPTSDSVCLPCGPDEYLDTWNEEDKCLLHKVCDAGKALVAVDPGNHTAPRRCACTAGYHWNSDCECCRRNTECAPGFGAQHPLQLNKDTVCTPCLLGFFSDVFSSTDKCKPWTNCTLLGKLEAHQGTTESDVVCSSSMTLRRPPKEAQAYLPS
Assay: SPR
Unit s⁻¹ implied. Number only.

stdin: What measured koff goes with RANKL_WT (mouse soluble RANKL, aa 160–316) (ligand, UniProt O35235 160-316, looked up) EAQPFAHLTINAASIPSGSHKVTLSSWYHDRGWAKISNMTLSNGKLRVNQDGFYYLYANICFRHHETSGSVPTDYLQLMVYVVKTSIKIPSSHNLMKGGSTKNWSGNSEFHFYSINVGGFFKLRAGEEISIQVSNPSLLDPDQDATYFGAFKVQDID ?
stdout: 0.0001

stdin: What measured koff goes with RANKL_Q236S (ligand, mouse, UniProt O35235 160-316, looked up) EAQPFAHLTINAASIPSGSHKVTLSSWYHDRGWAKISNMTLSNGKLRVNQDGFYYLYANICFRHHETSGSVPTDYLSLMVYVVKTSIKIPSSHNLMKGGSTKNWSGNSEFHFYSINVGGFFKLRAGEEISIQVSNPSLLDPDQDATYFGAFKVQDID ?
stdout: 0.00018

stdin: What measured koff goes with RANKL_Q236A (ligand, mouse, UniProt O35235 160-316, looked up) EAQPFAHLTINAASIPSGSHKVTLSSWYHDRGWAKISNMTLSNGKLRVNQDGFYYLYANICFRHHETSGSVPTDYLALMVYVVKTSIKIPSSHNLMKGGSTKNWSGNSEFHFYSINVGGFFKLRAGEEISIQVSNPSLLDPDQDATYFGAFKVQDID ?
stdout: 0.00018
